The measurements presented in this section are drawn from the nanobody polyreactivity screen of Harvey et al. (2022).

test: yeast display, Sf9 membrane polyspecificity reagent, FACS + sequencing; frameworks hold sequencing errors

| biosequence | polyreactivity (PSR sort gate) |
| --- | --- |
| QVQLVESGGGLVQAGGSLRLSCAASGRTFSKYAMGWYRQAPGKERELVAAITSGGGTYYADSVKGRFTNSRDNAKNTVYLQMNSLIPEDTGVYSCAVSVTTVSTYDYWGQGTQVTVSS | low polyreactivity |
| QVQLVESGGGLVQAGGSLRLSCAASGRTFKYNSMGWYRQAPGKERELVAAITRSGSTYYADSVKGRFTISRDNAKNTVYLQMNSLKPEDTAVYYCNARIVNYGSYYYWGQGTQVTVSS | high polyreactivity |
| QVQLVESGGGLVQAGGSLRLSCAASGSTFDVYTMGWYRQAPGKERELVATISGDDGSTYYADSVKGRFTISRDNAKNTVYLQMNSLKPEDTAVYYCAADYGGFPNYYSTGDYWGQGTQVTVSS | low polyreactivity |
| QVQLVESGGGLVPAGGSLRLSCAASGRIFFRNAMGWYRQAPGKERELVAAITYSGGSTYYADSVKGRFTISRDNAKNTVYLQMNSLKPEDTAVSYCAAGYWFSYSRVTRYDYWGQGTQVTVSS | high polyreactivity |
| QVQLVESGGGLVQAGGSLSLSCAASGSIFFYAMGGYRPAPGKERELVADITYTGGSKYADSVKGRFTISRDNAKYTVYLQMNSLKPEDTAVYSCAKLDGGLFDYWGHGTQVTVSS | low polyreactivity |
| QVQLGESGGGLVQAGGSLRLSCAASGLTFYLYAMGWYRQAPGKERELVAAITTSGGSTYYADSVKGRFTISRDTAKNTVYLQMNSLKPEDTAVYYCATQGALRGYGYWGQGTQVTVSS | high polyreactivity |
| QVQLVESGGGLVQAGGSLRLSCAASGSIFIINAMVWYRQAPGKERELVAAINNGVNTYYADSVKGRFTISRDNAKNTVYLQMNSLKPEDTAGYYCAADYGDPRVNEYDYWGQGTQVTVSS | low polyreactivity |
| QVQLVESGGGLVQAGGSLRLSCAASGSTFTGYVMGWYRQAPGKERELVAAITSSVDGTYYADSVKGRFTISRDNAKNTVYLQMNSLKPEDTAVYDCAADLWKGVYPSYDYWGQGTQVTVSS | low polyreactivity |
| QVPLVESGGGLVQAGGSLRLSCAASGRSFTSNAMGWYRQAPGKEREFVAAITIRGGSTYYADSVKGRFTISRDNATNTVYLQMHSLKPEDTALYYCAVGRRKTWGDYWGQGTQVTVSS | high polyreactivity |
| QVQLVESGGGLVQAGGSLRLSCAASGSIFRAYAMGWYRQAPGKERELVAAITNGGGTTYYADSVKGRFTISRDNAKNTVYLQMNSLKPEDTAVYYCAADGAYSYASYDYWGQGTQVTVSS | low polyreactivity |
| QVQLVESGGGLVQAGGSLRLSCAASGFIFRRYTMGWYRQAPGKERELVATITRSVNTDYADSVKGRFTFSRDNAKNTVYLQMNSLKPEDTAVYYCAARKYYYFPVAYDYWGQGTQVTVSS | high polyreactivity |
| QVQLVESGGGLVQAGGSLRLSCAASGLTFSDYAMGWYRQATGKEREFVAAITRNGGSTRYADSVKGRFTISRDNAKNTVYLQMNSLKPEDTAVYYCAADWSYEYGYWGQGTQVTVSS | low polyreactivity |
| QVQLVESGGGLVQAGGSLRLSCAASGIIFHFNAMGWYRQAPGKERELVAAITSGANTNYADSVKGRFTISRDNAKNTVYLQMNSLKPEDTSVYYCATRPHTDVRFVRTRRYDYWGQGTQVTVSS | low polyreactivity |
| QVQLVESGGGLVQAGGSLRLSCAASGRTSYVYAMGWYRQAPGKERELVAAITSSGGSTYYADSVKGRFTISRDNAKNTVYLQMNSLKPEDTAVYYCAAETYPVWGVAFYYWGQGTQVTVSS | high polyreactivity |
| QVQLVESGGGLVQAGGSLRLSCAASVSTFQGYSMGWYRQAPGKERELVAAITTDGDSTYYADSVKGRFTISRDNAKNTVYLQMNSLKPEDTAVYYCAADQDGRWEGSSDPGDSWGQGTQVTVSS | low polyreactivity |
| QVQLVESGGGLVQAGGSLRLSCAASGITFDNYAMGWYRQAPGKEWELVAAISSDDNTTYADSVKGRFTISRDNAKNTVYLQMNSLKPEDSAVYYCAADSRIYGYWEYDYCGQGTQVTVSS | low polyreactivity |
| QVQLVESGGGLVQAGGSLRLSCAASGGIFTYYTMGWYRQAPGKERELVAAISRRVGRTYYADSVKGRFTISRDKANNTVYLQMNSLKPEDTAVYYCNADSRRRLFDYWGQGTQVTVSS | high polyreactivity |
| QVQLVESGGGLVQAGGSLRLSCAASGLTFDYYDRGGYRQAPGKERELVASITWRGSSTYYADSVKGRFTISRDNAKNTVYLQMNSLKPEDTAVYYCAARPQHFDLDLAYSGFDYWGQGTQVTVSS | high polyreactivity |
| QVQLVESGGGLVQAGGSLRLSCAASGYIFSRNDRGWYRQAPGKERELVARITGSAGSTYYADSVKGRFTISRDNAKNTVYLQMNSLKPEDTAVYYCARRWYTWRKNKYCRMDYWGQGTQVTVSS | low polyreactivity |
| QVHLVESGGGLVQAGGSLRLSCAASGSTFRSYVMGWSRQAPGKERELVAAISRGGTTYYADSVKGRFTISRDNAKNTVYLQMNSLKPEDTPVYYCAATRTTRFYTGSKMNYWGQGTQVTVSS | high polyreactivity |
| QVQLVESGGGLVQAGGSLRLSCAASGSTFSYNAMGWYRQAPGKERELVASISTSGGSTYYADSVKGRFTISRDNAKNTVYLQMNSLKPEDTAVYYCNAPTSDMYSDFDYWGQGTQVTVSS | low polyreactivity |
